A collection of compounds and their measured pKi
target: LXR α LBD protein (Homo sapiens (Human), UniProt Q13133); assay: LXR α radioligand binding assay (SPA, competition with [3H]TO901317); conditions: read-out: LXRα Binding Ki
Sequence (Q13133 209-447): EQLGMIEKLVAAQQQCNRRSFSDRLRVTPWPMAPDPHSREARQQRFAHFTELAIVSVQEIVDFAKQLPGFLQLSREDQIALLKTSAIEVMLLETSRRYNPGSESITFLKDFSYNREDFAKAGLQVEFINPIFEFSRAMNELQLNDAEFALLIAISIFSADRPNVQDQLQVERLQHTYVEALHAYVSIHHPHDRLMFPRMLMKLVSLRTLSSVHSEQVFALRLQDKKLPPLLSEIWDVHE
pKi: −log10 of the molar value.
measurement.type: pKi

| compound | measurement.type | rel | value |
| --- | --- | --- | --- |
| CS(=O)(=O)c1cc(F)cc(N2CCN(Cc3ccc(C(F)(F)F)nc3)C(c3ccccc3)C2)c1 (centres unmarked) | pKi | < | 5.48 |
| CS(=O)(=O)c1cccc(N2CCN(Cc3ccc(C(F)(F)F)nc3)[C@@H](c3ccccc3Cl)C2)c1 (single isomer, unassigned) | pKi | = | 6.73 |
| CC(C)[C@@H]1CN(c2cccc(S(N)(=O)=O)c2)CCN1c1nccc(C(F)(F)F)n1 | pKi | = | 6.06 |
| CC(C)[C@@H]1CN(c2ccc(F)c(S(N)(=O)=O)c2)CCN1c1ccc(C(F)(F)F)cn1 | pKi | = | 7.14 |
| Cc1nnc(-c2ccc(N3CCN(c4ncc(CO)c(C(F)(F)F)n4)[C@H](C(C)C)C3)cc2S(C)(=O)=O)s1 | pKi | = | 5.69 |
| Cc1noc(-c2ccc(N3CCN(c4ncc(CO)c(C(F)(F)F)n4)[C@H](C(C)C)C3)cc2S(C)(=O)=O)n1 | pKi | < | 5.48 |
| CS(=O)(=O)c1cccc(N2CCN(CC3CCOCC3)[C@@H](c3ccccc3)C2)c1 | pKi | < | 5.48 |
| CS(=O)(=O)c1cccc(N2CCN(C[C@H]3CC[C@](C)(O)CC3)[C@@H](c3ccccc3)C2)c1 (single isomer, unassigned) | pKi | = | 5.34 |
| CC(C)[C@H]1CN(c2cccc(S(C)(=O)=O)c2)CCN1C[C@@H]1CC[C@H](C(F)(F)F)OC1 (single isomer, unassigned) | pKi | = | 7.08 |
| CS(=O)(=O)c1cc(N2CCN(C[C@H]3CC[C@H](C(F)(F)F)CC3)[C@@H](c3ccccc3)C2)ccc1CO (single isomer, unassigned) | pKi | = | 7.12 |
| CC(C)[C@@H]1CN(c2ccc(F)c(S(N)(=O)=O)c2)CCN1c1ncc(CO)c(C(F)(F)F)n1 | pKi | = | 6.45 |
| COCCNC(=O)c1cnc(N2CCN(c3ccc(F)c(S(C)(=O)=O)c3)C[C@H]2C(C)C)nc1C(F)(F)F | pKi | < | 5.48 |
| CC(C)[C@@H]1CN(c2ccc(F)c(S(C)(=O)=O)c2)CCN1c1nc(C(F)(F)F)c(C(C)(C)O)s1 | pKi | = | 6.95 |
| CC(C)[C@@H]1CN(c2cc(S(C)(=O)=O)c(C(N)=O)cc2Cl)CCN1c1nccc(C(F)(F)F)n1 | pKi | < | 5.48 |

====

target: Gal4 DNA binding domain fused to the LBD of LXRβ in HEK293 cells (Homo sapiens (Human)); test: cell-based
Sequence (P55055 222-460 limits assumed): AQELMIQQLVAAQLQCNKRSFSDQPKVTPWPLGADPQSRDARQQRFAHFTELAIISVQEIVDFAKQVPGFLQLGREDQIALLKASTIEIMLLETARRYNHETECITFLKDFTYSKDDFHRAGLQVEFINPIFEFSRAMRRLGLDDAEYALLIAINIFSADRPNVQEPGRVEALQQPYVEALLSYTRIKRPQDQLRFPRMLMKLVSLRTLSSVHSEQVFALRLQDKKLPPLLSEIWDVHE
pEC50: −log10 of the molar value.
Consider the reported pEC50 of an entry and match it to a band in LOW: < 6; MEDIUM: ≥ 6 and < 7; HIGH: ≥ 7

| compound | category.label |
| --- | --- |
| CO[C@]1(C(F)(F)F)CC[C@H](CN2CCN(c3ccc(CO)c(S(C)(=O)=O)c3)C[C@@H]2C(C)C)CC1 (single isomer, unassigned) | HIGH |
| Cc1ccc(C2CC2)nc1N1CCN(c2cccc(S(C)(=O)=O)c2)C[C@H]1C(C)C | LOW |
| C[C@]1(c2ccccc2)CN(c2cccc(S(C)(=O)=O)c2)CCN1Cc1ccc(C(F)(F)F)cc1 (single isomer, unassigned) | MEDIUM |
| CSCc1cnc(N2CCN(c3ccc(F)c(S(C)(=O)=O)c3)C[C@H]2C(C)C)nc1C(F)(F)F | HIGH |
| Cc1nnc(-c2ccc(N3CCN(c4ncc(CO)c(C(F)(F)F)n4)[C@H](C(C)C)C3)cc2S(C)(=O)=O)o1 | MEDIUM |
| CC(C)[C@@H]1CN(c2ccc(F)c(S(C)(=O)=O)c2)CCN1c1ncc(C(=O)N2CC(O)C2)c(C(F)(F)F)n1 | LOW |
| CS(=O)(=O)c1cccc(N2CCN(Cc3ccc(C(F)(F)F)cn3)[C@@H](c3ccccc3)C2)c1 | LOW |
| CC(C)(O)c1ccc(CN2CCN(c3cccc(S(C)(=O)=O)c3)C[C@@H]2c2ccccc2)cc1 | LOW |
| CS(=O)(=O)c1cccc(N2CCN(CC3CCN(CC(F)(F)F)CC3)[C@H](c3ccccc3Cl)C2)c1 | LOW |
